Assay: Thermodynamic solubility (shake-flask)
Format: physicochemical
Settings: aqueous phosphate buffer, 25 °C, pH 7.4, aqueous buffer, thermodynamic from solid, phosphate buffer pH 7.4, 24 hours
Label 1.0 when solubility at 24 h is at or above 400 µM; otherwise label 0.0.

In [3]: df
Out[3]:
                                    compound  category
 0  COc1ccc(NCCNCCCF)c(F)c1[C@@H]1c2[nH]c3ccccc3c2C[C@@H](C)N1CC(F)(F)F       0.0
 1  Cc1c(OCCN(C)CCCF)ccc(F)c1[C@@H]1c2[nH]c3ccccc3c2C[C@@H](C)N1CCC(=O)O       1.0
 2  Cc1c(OCCN(C)CCCF)ncc(F)c1[C@@H]1c2[nH]c3ccccc3c2C[C@@H](C)N1C(C)CC(=O)O (single isomer, unassigned)       1.0
 3  COc1ccc(OCCNCCCF)nc1[C@@H]1c2[nH]c3ccccc3c2C[C@@H](C)N1CC(F)(F)F       1.0
 4  C[C@@H]1Cc2c([nH]c3ccccc23)[C@@H](c2c(F)ccc(NCCNCCCF)c2F)N1CC(F)(F)F       0.0
 5  C[C@@H]1Cc2c([nH]c3ccc(F)cc23)[C@@H](c2c(F)ccc(OCCNCCCF)c2F)N1CC(F)(F)CO       1.0
 6  COc1cc(F)c(NCCNCCCF)cc1[C@@H]1c2[nH]c3ccccc3c2C[C@@H](C)N1CC(F)(F)F       0.0
 7  Cc1c(OCCNCCCF)ccc(F)c1[C@@H]1c2[nH]c3ccccc3c2C[C@@H](C)N1CC(F)(F)CO       0.0
 8  C[C@@H]1Cc2c([nH]c3ccccc23)[C@@H](c2nccc(OCCNCCCF)c2F)N1CC(F)(F)F       1.0
 9  COc1ccc(NCCNCCCF)cc1[C@@H]1c2[nH]c3ccccc3c2C[C@@H](C)N1CC(F)(F)F       0.0
10  Cc1c(NCCNCCCF)ccnc1[C@@H]1c2[nH]c3ccccc3c2C[C@@H](C)N1CC(F)(F)F       1.0
11  Cc1c(OCCN(C)CCCF)ccc(F)c1[C@@H]1c2[nH]c3ccccc3c2C[C@@H](C(F)(F)F)N1C[C@H](C)C(=O)O       1.0
12  COc1ccc(OCCNCCCF)cc1[C@@H]1c2[nH]c3ccccc3c2C[C@@H](C)N1C[C@H](C)C(=O)O       1.0
13  COc1ccc(O[C@@H](C)CNCCCF)cc1[C@@H]1c2[nH]c3ccccc3c2C[C@@H](C)N1CC(F)(F)CO       0.0

* * *

Biological target: estrogen receptor (ERα) in CAMA-1 cells (Homo sapiens (Human), UniProt P03372)
Sequence (P03372 whole entry): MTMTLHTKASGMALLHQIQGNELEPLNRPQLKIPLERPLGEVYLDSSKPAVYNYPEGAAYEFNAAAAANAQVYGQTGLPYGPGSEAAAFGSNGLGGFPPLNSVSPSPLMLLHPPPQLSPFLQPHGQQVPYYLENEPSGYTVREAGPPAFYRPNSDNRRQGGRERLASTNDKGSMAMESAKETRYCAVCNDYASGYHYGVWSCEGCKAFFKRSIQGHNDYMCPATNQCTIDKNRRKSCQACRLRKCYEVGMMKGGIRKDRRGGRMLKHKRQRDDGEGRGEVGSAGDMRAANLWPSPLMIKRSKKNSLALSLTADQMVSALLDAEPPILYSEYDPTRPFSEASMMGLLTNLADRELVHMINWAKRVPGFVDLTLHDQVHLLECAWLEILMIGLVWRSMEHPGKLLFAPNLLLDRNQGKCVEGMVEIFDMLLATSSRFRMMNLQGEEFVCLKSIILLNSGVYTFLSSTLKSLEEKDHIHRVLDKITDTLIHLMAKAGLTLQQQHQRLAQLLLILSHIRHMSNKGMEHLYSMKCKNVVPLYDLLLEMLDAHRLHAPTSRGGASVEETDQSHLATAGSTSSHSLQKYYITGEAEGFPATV
Assay: Western blotting assay, ER down-regulation in CAMA-1
Type: cell-based
Conditions: CAMA-1, 100 nM compound, 48 h, vs 100 nM fulvestrant
// reported CAMA1 Western % ER deg vs Fv per item
Endpoint Name: CAMA1 Western % ER deg vs Fv (%)

>>> print(df.to_string())
                  compound_structure_string                       experimental_system  value_reported
0  COc1ccc(OCCNCCCF)cc1[C@@H]1c2[nH]c3ccccc3c2C[C@@H](C)N1CC(F)(F)F  estrogen receptor (ERα) in CAMA-1 cells (Homo sapiens (Human), UniProt P03372)              90
1  Cc1c(OCCNCCCF)ccc(F)c1[C@@H]1c2[nH]c3ccc(F)cc3c2C[C@@H](C)N1C[C@@H](C)C(=O)O  estrogen receptor (ERα) in CAMA-1 cells (Homo sapiens (Human), UniProt P03372)             107
2  C[C@@H]1Cc2c([nH]c3ccccc23)[C@@H](c2c(F)ccc(OCCNCCCF)c2F)N1CC1(F)COC1  estrogen receptor (ERα) in CAMA-1 cells (Homo sapiens (Human), UniProt P03372)              92

* * *

Assay: Thermodynamic solubility (shake-flask)
Type: physicochemical
Conditions: aqueous phosphate buffer, 25 °C, pH 7.4, aqueous buffer, thermodynamic from solid, phosphate buffer pH 7.4, 24 hours
Endpoint Name: log10(solubility at 24 h) (log10 of the value in µM)

In [3]: df
Out[3]:
                                    compound  value_reported
 0  Cc1c(N(C)CCNCCCF)ccc(F)c1[C@@H]1c2[nH]c3ccccc3c2C[C@@H](C)N1C[C@H](C)C(=O)O [Example 136]            2.52
 1  C[C@@H]1Cc2c([nH]c3ccccc23)[C@@H](c2nccc(OCCNCCCF)c2F)N1CC(F)F [Example 98]            2.77
 2  Cc1c(OCCNCCCF)ncnc1[C@@H]1c2[nH]c3ccccc3c2C[C@@H](C)N1CC(F)(F)CO [Example 115]            2.99
 3  Cc1c(OCCNCCCF)ccnc1[C@@H]1c2[nH]c3ccccc3c2C[C@@H](C)N1CC(F)(F)CO [Example 96]            2.98
 4  C[C@@H]1Cc2c([nH]c3ccccc23)[C@@H](c2cc(OCCNCCCF)ccc2C#N)N1CC(F)(F)F [Example 23]            1.86
 5  C[C@@H]1Cc2c([nH]c3c(F)cccc23)[C@@H](c2c(F)ccc(OCCNCCCF)c2F)N1CC(F)(F)CO [Example 60]            2.55
 6  COc1ccc(OCCNCCCF)cc1[C@@H]1c2[nH]c3ccc(F)cc3c2C[C@@H](C)N1CC(F)(F)CO [Example 46]            2.66
 7  Cc1c(OCCNCCCF)ncnc1[C@@H]1c2[nH]c3ccccc3c2C[C@@H](C)N1CC(F)(F)F [Example 114]            2.44
 8  C[C@@H]1Cc2c([nH]c3ccccc23)[C@@H](c2cncc(OCCNCCCF)c2)N1CC(F)(F)F [Example 101]            2.52
 9  COc1ccc(OCCNCCCF)cc1[C@@H]1c2[nH]c3ccccc3c2C[C@@H](C)N1CC(F)(F)F [Example 7]            1.54
10  C[C@@H]1Cc2c([nH]c3ccccc23)[C@@H](c2c(F)cnc(OCCNCCCF)c2F)N1CC(F)(F)F [Example 107]            2.08
11  C[C@@H]1Cc2c([nH]c3ccccc23)[C@@H](c2cccc(OCCNCCCF)c2F)N1CC(F)(F)F [Example 24]            1.94
12  C[C@@H]1Cc2c([nH]c3ccccc23)[C@@H](c2cc(OCCNCCCF)ccn2)N1CC(F)(F)F [Example 35]            2.35
13  C[C@@H]1Cc2c([nH]c3ccccc23)[C@@H](c2c(Cl)ccc(OCCNCCCF)c2Cl)N1C[C@H](C)C(=O)O [Example 128]            2.99
14  Cc1ccc([C@@H]2c3[nH]c4ccccc4c3C[C@@H](C)N2CC(F)(F)F)cc1OCCNCCCF [Example 19]            0.70
15  COc1c(F)cc(OCCNCCCF)c(F)c1[C@@H]1c2[nH]c3ccccc3c2C[C@@H](C)N1CC(F)(F)F [Example 29]            1.76
16  COc1cnc(NCCNCCCF)cc1[C@@H]1c2[nH]c3ccccc3c2C[C@@H](C)N1CC(F)(F)F [Example 42]            2.54
17  COc1ccc(OCCNCCCF)cc1[C@@H]1c2[nH]c3ccccc3c2C[C@@H](C)N1CC1(F)COC1 [Example 4]            2.73

* * *

// reported IC50 per item
Target: Estrogen Receptor (ERα) in MCF-7 cells (Homo sapiens (Human), UniProt P03372)
Sequence (P03372 whole entry): as above
Assay: MCF-7 ER down-regulation assay (immuno-fluorescence)
Endpoint Name: IC50 (nM)

>>> print(df.to_string())
                                    molecule  limit_operator  value_reported
 0  COc1ccc(OCCNCCCF)c(F)c1[C@@H]1c2[nH]c3ccccc3c2C[C@@H](C)N1CC1(F)CC1 [Example 83]               =            0.28
 1  C[C@@H]1Cc2c([nH]c3ccccc23)[C@@H](c2c(F)ccc(OCCNCCCF)c2Cl)N1CC(F)(F)CO [Example 85]               =           0.089
 2  C[C@@H]1Cc2c([nH]c3ccccc23)[C@@H](c2c(F)cnc(OCCNCCCF)c2F)N1CC(F)(F)F [Example 107]               =            0.21
 3  COc1ccc(OCCNCCCF)c(F)c1[C@@H]1c2[nH]c3ccccc3c2C[C@@H](C)N1CC(F)(F)F [Example 11]               =            0.14
 4  COc1c(F)cc(OCCNCCCF)c(F)c1[C@@H]1c2[nH]c3ccccc3c2C[C@@H](C)N1CC(F)(F)F [Example 29]               =            0.44
 5  C[C@@H]1Cc2c([nH]c3ccccc23)[C@@H](c2c(F)cnc(OCCNCCCF)c2Cl)N1CC(F)(F)CO [Example 111]               =            0.07
 6  Cc1ccc2[nH]c3c(c2c1)C[C@@H](C)N(CC(F)(F)CO)[C@@H]3c1c(F)cnc(OCCNCCCF)c1F [Example 66]               =            0.34
 7  C[C@@H]1Cc2c([nH]c3ccccc23)[C@@H](c2ccnc(OCCNCCCF)c2)N1CC(F)(F)F [Example 102]               =             2.9
 8  C[C@@H]1Cc2c([nH]c3ccccc23)[C@@H](c2cc(OCCNCCCF)ccc2Cl)N1CC(F)(F)F [Example 22]               =            0.12
 9  C[C@@H]1Cc2c([nH]c3ccccc23)[C@@H](c2c(Cl)ccc(OCCNCCCF)c2F)N1C[C@H](C)C(=O)O [Example 54]               =               1
10  C[C@@H]1Cc2c([nH]c3ccccc23)[C@@H](c2cc(OCCNCCCF)cc(F)c2F)N1CC(F)(F)F [Example 30]               =            0.32
11  Cc1c(N(C)CCNCCCF)ccc(F)c1[C@@H]1c2[nH]c3ccccc3c2C[C@@H](C)N1C[C@H](C)C(=O)O [Example 136]               >             300
12  COc1ccc(OCCNCCCF)c(F)c1[C@@H]1c2[nH]c3ccccc3c2C[C@@H](C)N1CC(F)(F)CO [Example 81]               =            0.17
13  C[C@@H]1Cc2c([nH]c3ccccc23)[C@@H](c2c(F)ccc(OCCNCCCF)c2F)N1CC(F)(F)F [Example 9]               =           0.088
14  C[C@@H]1Cc2c([nH]c3cccc(F)c23)[C@@H](c2c(F)ccc(OCCNCCCF)c2F)N1CC(F)(F)CO [Example 62]               =           0.076
15  COc1ccc(OCCNCCCF)c(F)c1[C@@H]1c2[nH]c3ccc(F)cc3c2C[C@@H](C)N1CC(F)(F)CO [Example 86]               =            0.17
16  C[C@@H]1Cc2c([nH]c3cc(F)ccc23)[C@@H](c2c(F)ccc(OCCNCCCF)c2F)N1CC(F)(F)CO [Example 61]               =            0.19
17  Cc1c(OCCNCCC(F)F)ccc(F)c1[C@@H]1c2[nH]c3ccccc3c2C[C@@H](C)N1C[C@H](C)C(=O)O [Example 124]               =            0.68
18  C[C@@H]1Cc2c([nH]c3ccccc23)[C@@H](c2nccc(OCCNCCCF)c2F)N1CC1(F)CC1 [Example 99]               =             3.8
